- Test system: HCC-38
- TEST_DETAILS: relative cell number vs DMSO control (72 h) (% of DMSO); higher = less growth inhibition (more cells)
- CONDITION_CONTEXT: sgRNA knockout: sgNT, 10000 nM
ENDPOINT_LABEL: relative cell number
Give a plain numeric answer without units written out.

Ask: Check the records and state relative cell number for `CS(=O)(=O)c1cccc(CNc2nc(Nc3ccc4c(c3)CCC(=O)N4)ncc2C(F)(F)F)c1`
Reply: 50.5

Ask: Check the records and state relative cell number for `C=C(C)[C@@H]1CC[C@]2(C(=O)O)CC[C@]3(C)[C@H](CC[C@@H]4[C@@]5(C)CC[C@H](O)C(C)(C)[C@@H]5CC[C@]43C)[C@@H]12`
Reply: 96.4

Ask: Check the records and state relative cell number for `O=c1cc(-c2cccc3c2Sc2ccccc2S3)oc(N2CCOCC2)c1`
Reply: 82.7

Ask: Check the records and state relative cell number for `CCCS(=O)(=O)Nc1ccc(F)c(C(=O)c2c[nH]c3ncc(Cl)cc23)c1F`
Reply: 98.3

Ask: Check the records and state relative cell number for `COc1cc(OC)c(/C=C/S(=O)(=O)Cc2ccc(OC)c(NCC(=O)O)c2)c(OC)c1`
Reply: 24.8

Ask: Check the records and state relative cell number for `Cc1ccc(NC(=O)c2ccc(CN3CCN(C)CC3)cc2)cc1Nc1nc(-c2cccnc2)cs1`
Reply: 97.6

Ask: Check the records and state relative cell number for `CC(=O)O[C@H]1C(=O)[C@@]2(C)[C@H]([C@H](OC(=O)c3ccccc3)[C@]3(O)C[C@H](OC(=O)[C@H](O)[C@@H](NC(=O)c4ccccc4)c4ccccc4)C(C)=C1C3(C)C)[C@]1(OC(C)=O)CO[C@@H]1C[C@@H]2O`
Reply: 25.4

Ask: Check the records and state relative cell number for `O=C(Cc1ccc(-c2ccc(OCCN3CCOCC3)cc2)cn1)NCc1ccccc1`
Reply: 30.8

Ask: Check the records and state relative cell number for `Cc1ccc(Nc2nccc(N(C)c3ccc4c(C)n(C)nc4c3)n2)cc1S(N)(=O)=O`
Reply: 56.8

Ask: Check the records and state relative cell number for `CN(C)c1cc(NC(=O)CNC(C)(C)C)c(O)c2c1C[C@H]1C[C@H]3[C@H](N(C)C)C(O)=C(C(N)=O)C(=O)[C@@]3(O)C(O)=C1C2=O`
Reply: 102

Ask: Check the records and state relative cell number for `Fc1ccc(CNc2ncnc3ccc(F)cc23)cc1`
Reply: 106

Ask: Check the records and state relative cell number for `O=C(O)CCCc1ccc(N(CCCl)CCCl)cc1`
Reply: 67.5

Ask: Check the records and state relative cell number for `Nc1ncn([C@H]2C[C@H](O)[C@@H](CO)O2)c(=O)n1`
Reply: 35.6

Ask: Check the records and state relative cell number for `CC(=O)Nc1nc(C)c(S(=O)(=O)Nc2ccc(C(O)(C(F)(F)F)C(F)(F)F)cc2)s1`
Reply: 109

Ask: Check the records and state relative cell number for `O=C(c1ccc(/C=C/c2n[nH]c3ccccc23)cc1)N1CCNCC1`
Reply: 42.2

Ask: Check the records and state relative cell number for `OCc1ccc(-c2ccc(-c3ccc(CO)s3)o2)s1`
Reply: 63.6
